target: cardiac troponin C (L48Q TnC IAANS T53C) (Homo sapiens, UniProt P63316); assay: IAANS fluorescence titration
READOUT: pKd
Answers are plain numbers, as −log10 of the molar value.

I'd like to know its pKd. The binder in question is cardiac troponin I peptide TnI128-180 128-180 (protein) LTQKIFDLRGKFKRPTLRRVRISADAMMQALLGARAKESLDLRAHLKQVKKED 6.57
